IC50 overview
# target_or_system: recombinant human DAO (diamine oxidase) (Homo sapiens)
# Construct: purchased R&D systems
# Sequence (P19801 20-751): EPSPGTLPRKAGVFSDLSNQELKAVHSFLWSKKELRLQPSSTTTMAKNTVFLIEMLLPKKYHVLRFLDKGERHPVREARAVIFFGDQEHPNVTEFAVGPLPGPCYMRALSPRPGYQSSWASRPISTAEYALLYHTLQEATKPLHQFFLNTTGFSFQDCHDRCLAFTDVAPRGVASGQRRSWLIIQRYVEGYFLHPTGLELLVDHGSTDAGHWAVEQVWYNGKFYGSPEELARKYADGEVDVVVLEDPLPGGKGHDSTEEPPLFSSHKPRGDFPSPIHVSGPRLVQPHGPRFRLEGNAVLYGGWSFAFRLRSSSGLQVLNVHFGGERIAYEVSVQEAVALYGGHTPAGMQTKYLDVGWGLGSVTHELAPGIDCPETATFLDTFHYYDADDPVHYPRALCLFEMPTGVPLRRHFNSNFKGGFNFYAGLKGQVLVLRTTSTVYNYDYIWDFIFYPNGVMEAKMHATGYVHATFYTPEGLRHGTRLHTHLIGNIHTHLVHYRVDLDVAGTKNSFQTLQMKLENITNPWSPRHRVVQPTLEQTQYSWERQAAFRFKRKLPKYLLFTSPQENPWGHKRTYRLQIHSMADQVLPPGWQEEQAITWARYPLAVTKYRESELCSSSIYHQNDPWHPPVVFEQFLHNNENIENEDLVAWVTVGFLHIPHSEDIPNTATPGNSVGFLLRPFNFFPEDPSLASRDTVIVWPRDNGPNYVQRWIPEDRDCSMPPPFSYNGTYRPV
# assay_explanation: Activity on recombinant human DAO, Amplex Red method, 1 mM putrescine substrate
# Format: biochemical
# condition_label: recombinant human DAO, 1 mM putrescine substrate; read-out: Inhibitory Activity (IC50, nM) DAO
Structures can show the parent of a compound that is named as a salt.
Give a bare numeral; the unit nM is implied.

Consider the reported IC50 for these compounds:
Cc1cc(-c2cc(C)c3c(c2)CCC(=O)N3)cnc1-n1cnn(C/C(=C/F)CN)c1=O [Example 154, hydrochloride] : 190
NC/C(=C\F)Cn1ncn(-c2cccc(C#Cc3cnc4c(c3)OCCN4)n2)c1=O : 53
Cc1cc(-c2ccc3c(c2)NC(=O)CO3)cnc1-n1cnn(C/C(=C/F)CN)c1=O [Example 155, hydrochloride] : 87
CN(C)c1ccc(-c2cccc(-n3cnn(C/C(=C/F)CN)c3=O)n2)cn1 [Example 188, hydrochloride] : 4
NC/C(=C\F)Cn1ncn(-c2cccc(C#Cc3cnc4c(c3)OCC(=O)N4)n2)c1=O : 20
NC/C(=C\F)Cn1ncn(-c2cccc(C#Cc3ccc(N4CCOCC4)nc3)n2)c1=O : 8
NC/C(=C\F)Cn1ncn(-c2cc(C#Cc3ccncc3)ccn2)c1=O [Example 246, hydrochloride] : 12
Cc1ccc(-c2ccc(C(=O)N3CCOCC3)cc2)nc1-n1cnn(C/C(=C/F)CN)c1=O [Example 211, hydrochloride] : 3500
Cc1cc(-c2ccc3cn[nH]c3c2)cnc1-n1cnn(C/C(=C/F)CN)c1=O : 640
NC/C(=C\F)Cn1ncn(-c2ncc(-c3ccc4c(c3)NCC4=O)cc2F)c1=O : 1.3

Now for the compound whose IC50 we want.
Please state recorded IC50 (tested on recombinant human DAO (diamine oxidase) (Homo sapiens)) of CN(C)c1cccc(-c2cccc(-n3cnn(C/C(=C/F)CN)c3=O)n2)c1 [Example 174, hydrochloride]
1100

Data provenance is patent US11492335B2.
